Source listed as the supplement of paper PMC4932681.

relative IC50: recorded values
Test system: ZR-75-1
Assay: relative IC50 (midpoint of fitted logistic curve, plateau may be below 50% inhibition; CellTiter-Glo viability); higher = less potent
Conditions: 4-OH-tamoxifen in medium 0 µM; 72 h

Some solved cases for reference:
molecule="CC(C)(C)c1cnc(CSc2cnc(NC(=O)C3CCNCC3)s2)o1 [SNS-032]" recorded_measurement="243 nM"
molecule=CN(C)C[C@@H]1CCn2cc(c3ccccc32)C2=C(C(=O)NC2=O)c2cn(c3ccccc23)CCO1 recorded_measurement="1320 nM"
molecule="Nc1nc(=O)c2c([nH]1)NCC(CNc1ccc(C(=O)N[C@@H](CCC(=O)O)C(=O)O)cc1)N2C=O (mixture of isomers) [Folinic acid]" recorded_measurement="> 990000 nM"
molecule="CO[C@@H]1[C@H](N(C)C(=O)c2ccccc2)C[C@H]2O[C@]1(C)n1c3ccccc3c3c4c(c5c6ccccc6n2c5c31)C(=O)NC4 [Midostaurin (PKC412)]" recorded_measurement="> 10000 nM"
molecule="Cc1ccc(NC(=O)c2ccc(CN3CCN(C)CC3)cc2)cc1Nc1nc(-c2cccnc2)cs1 [Masitinib]" recorded_measurement="> 10000 nM"

[ask] Hello, I am looking for reported relative IC50 with ZR-75-1 for CCN1CCN(c2ccc(Nc3cc(N(C)C(=O)Nc4c(Cl)c(OC)cc(OC)c4Cl)ncn3)cc2)CC1 [NVP-BGJ398] . Could you help?
[reply] > 1000 nM

[ask] Same lookup for CNC(=O)c1ccccc1Sc1ccc2c(/C=C/c3ccccn3)n[nH]c2c1 [Axitinib] , please.
[reply] > 10000 nM

[ask] Same lookup for CN(C)CCOc1ccc(/C(=C(/CCCl)c2ccccc2)c2ccccc2)cc1 [Toremifene (citrate)] , please.
[reply] > 10000 nM

[ask] Same lookup for CCOc1cc2ncc(C#N)c(Nc3ccc(OCc4ccccn4)c(Cl)c3)c2cc1NC(=O)/C=C/CN(C)C [Neratinib] , please.
[reply] > 1000 nM

[ask] Same lookup for Nc1cc(C(F)(F)F)c(-c2cc(N3CCOCC3)nc(N3CCOCC3)n2)cn1 [Buparlisib (BKM-120)] , please.
[reply] 990 nM

[ask] Same lookup for CN(C)/N=N/c1[nH]cnc1C(N)=O [Dacarbazine] , please.
[reply] > 10000 nM

[ask] Same lookup for Cn1cnc2c(F)c(Nc3ccc(Br)cc3F)c(C(=O)NOCCO)cc21 [MEK-162 (ARRY-162)] , please.
[reply] > 1000 nM

[ask] Same lookup for Cn1c(Nc2ccc(C(F)(F)F)cc2)nc2cc(Oc3ccnc(-c4ncc(C(F)(F)F)[nH]4)c3)ccc21 [RAF265] , please.
[reply] > 1000 nM

[ask] Same lookup for CC[C@@H]1C(=O)N(C)c2cnc(Nc3ccc(C(=O)N[C@H]4CC[C@H](N5CCN(CC6CC6)CC5)CC4)cc3OC)nc2N1C(C)C [Volasertib (BI 6727)] , please.
[reply] > 1000 nM

[ask] Same lookup for O=C(CCCCCCC(=O)Nc1ccccc1)NO [Vorinostat] , please.
[reply] 2900 nM

[ask] Same lookup for O=P(O)(O)C(O)(Cn1ccnc1)P(=O)(O)O [Zoledronic acid] , please.
[reply] > 10000 nM

----------
Tested on: ZR-75-1
Assay: viability inhibition at highest dose (% inhibition); higher = more growth inhibition
Settings: 4-OH-tamoxifen in medium 0 µM; 72 h
Counter-ions that a name gives are not always drawn.
The label is t for viability inhibition at highest dose below 7 and f for viability inhibition at highest dose equal to or exceeding 7.

compound="CNNCc1ccc(C(=O)NC(C)C)cc1 [Procarbazine] (drug 10000 nM)" answer_label=t
compound="O=C(/C=C/c1cccnc1)NCCCCC1CCN(C(=O)c2ccccc2)CC1 [Daporinad (FK-866 HCl)] (drug 1000 nM)" answer_label=t
compound="Cn1cc(CNCC2CCN(c3ncc(C(=O)NO)cn3)CC2)c2ccccc21 (drug 1000 nM)" answer_label=f
compound="CCC1(c2ccc(N)cc2)CCC(=O)NC1=O (centres undefined) [Aminoglutethimide] (drug 10000 nM)" answer_label=t
compound="c1ccc2c(CCNc3ccc(Nc4ccncc4)cc3)c[nH]c2c1 (drug 10000 nM)" answer_label=f
compound="CN1CCN(c2nc(C3=C(c4c[nH]c5ccccc45)C(=O)NC3=O)c3ccccc3n2)CC1 [Sotrastaurin] (drug 10000 nM)" answer_label=t

[ask] Given CNC(=O)c1ccc(N2C(=S)N(c3ccc(C#N)c(C(F)(F)F)c3)C(=O)C2(C)C)cc1F [Enzalutamide (MDV 3100)] (drug 10000 nM) , is recorded viability inhibition at highest dose strictly lower than 7?
[reply] t

[ask] Same lookup for CNC(=O)c1cc(Oc2ccc(NC(=O)Nc3ccc(Cl)c(C(F)(F)F)c3)cc2)ccn1 [Sorafenib] (drug 1000 nM) , please.
[reply] t

[ask] Same lookup for CC(C)C[C@H](NC(=O)[C@H](Cc1ccccc1)NC(=O)c1cnccn1)B(O)O [Bortezomib] (drug 1000 nM) , please.
[reply] f
